Numbers sourced from patent US6495576B2.

Quick reference for melting point among some molecules

Reference set (7 entries):
CC(C)(C)C(NC(=O)c1ccc(I)cc1)NS(=O)(=O)Nc1cccnc1 (centres unmarked)	177 to 178 °C
COc1ncccc1Nc1c(NC(NC(=O)c2cccc(C)c2)C(C)(C)Cc2ccccc2)c(=O)c1=O (centres unmarked)	233 to 235 °C
CC(C)(C)C(NC(=O)c1cc(Cl)cc(Cl)c1)Nc1c(Nc2cncc(C(F)(F)F)c2)c(=O)c1=O (centres unmarked)	233 to 234 °C
CC(C)(C)C(NC(=O)c1cccc(Cl)c1)Nc1c(Nc2cccnc2Cl)c(=O)c1=O (centres unmarked)	213 to 214 °C
CC(C)(C)C(NC(=O)c1cc(F)cc(F)c1)Nc1c(Nc2cccnc2Cl)c(=O)c1=O (centres unmarked) [Example 110A]	215 to 217 °C
COc1ncccc1Nc1c(NC(NC(=O)c2cccc(C)c2)C(C)(C)C)c(=O)c1=O (centres unmarked)	224 to 226 °C
CC(C)(C)C(NC(=O)c1cc(F)cc(F)c1)Nc1c(Nc2cccnc2Cl)c(=O)c1=O (single isomer, unassigned; (+)) [Example 110]	215 to 216 °C

Please turn your attention to the following entry.
Quick one: melting point for COc1ncccc1Nc1c(NC(NC(=O)c2cc(F)cc(F)c2)C(C)(C)C)c(=O)c1=O (centres unmarked) ?
221 to 223 °C

----------
Tested on: Landrace pig bladder strips
Experiment: Functional potassium channel opening activity in isolated, field-stimulated bladder strips
Details: Sus scrofa; maximal efficacy on stimulated twitch, relative to P1075
experimentalReadout: Emax (%)
Answer in %, number only, no unit symbol.

Reference set (3 entries):
CC(C)(C)C(NC(=O)c1cc(F)cc(F)c1)Nc1c(Nc2cccnc2)c(=O)c1=O (single isomer, unassigned; (-))	79
CC(C)(Cc1ccccc1)C(NC(=O)c1ccc(Cl)cc1)Nc1c(Nc2cccnc2)c(=O)c1=O (centres unmarked)	62
CC(Cl)(Cl)C(NC(=O)c1cc(F)cc(F)c1)Nc1c(Nc2cccnc2)c(=O)c1=O (centres unmarked)	96

Quick one: Emax for CC(C)(Cc1ccccc1)C(NC(=O)c1cccc(Cl)c1)Nc1c(Nc2cccnc2)c(=O)c1=O (centres unmarked) ?
57

Quick one: Emax for Cc1cccc(C(=O)NC(Nc2c(Nc3cccnc3)c(=O)c2=O)C(C)(C)Cc2ccccc2)c1 (centres unmarked) ?
88

----------
System: Landrace pig bladder strips
Assay: Functional potassium channel opening activity in isolated, field-stimulated bladder strips
Details: Sus scrofa; maximal efficacy on stimulated twitch, relative to P1075
experimentalReadout: Emax (%)
Answer in %, number only, no unit symbol.

CC(C)(C)C(NC(=O)c1cccc(Cl)c1)Nc1c(Nc2cccnc2)c(=O)c1=O (single isomer, unassigned; (-)) [Example 57]	81
CC(C)(C)[C@H](NC(=O)c1cc(Cl)cc(Cl)c1)Nc1c(Nc2cccnc2Cl)c(=O)c1=O [Example 108]	89
CC(C)(Cc1ccccc1)C(NC(=O)c1cc(F)cc(F)c1)Nc1c(Nc2cccnc2)c(=O)c1=O (stereo not shown) [Example 55]	75

Please turn your attention to the following entry.
Reported Emax for Landrace pig bladder strips, given CC(C)(C)C(NC(=O)c1cc(Cl)cc(Cl)c1)Nc1c(Nc2cccnc2Cl)c(=O)c1=O (stereo not shown) [Example 79] ?
60

----------
System: Landrace pig bladder strips
Test: Functional potassium channel opening activity in isolated, field-stimulated bladder strips
Conditions: maximal efficacy on stimulated twitch, relative to P1075
experimentalReadout: Efficacy (%P1075)
Answer in %P1075, number only, no unit symbol.

Reference set (3 entries):
CC(C)(C)C(NC(=O)CCc1ccccc1)Nc1c(Nc2cccnc2Cl)c(=O)c1=O (stereo not shown) [Example 87]	96
CC(C)(C)C(NC(=O)c1cccc(Cl)c1)Nc1c(Nc2cccnc2)c(=O)c1=O (single isomer, unassigned; (+)) [Example 56]	94
Cc1cccc(C(=O)NC(Nc2c(Nc3cccnc3Cl)c(=O)c2=O)C(C)(C)Cc2ccccc2)c1 (stereo not shown) [Example 61]	64

Quick one: Efficacy (%P1075) for CC(C)(Cc1ccccc1)C(NC(=O)c1ccc(Cl)cc1)Nc1c(Nc2cccnc2Cl)c(=O)c1=O (stereo not shown) [Example 31] ?
76

----------
Tested on: Landrace pig bladder strips
Assay: Functional potassium channel opening activity in isolated, field-stimulated bladder strips
Settings: Sus scrofa; maximal efficacy on stimulated twitch, relative to P1075
Quick reference for Emax among some compounds
Answer in %, number only, no unit symbol.

Reference set (2 entries):
CC(C)(C)CC(NC(=O)c1cccc(Cl)c1)Nc1c(Nc2cccnc2)c(=O)c1=O (stereo not drawn) [Example 64]	76
CC(C)(C)C(NC(=O)c1cccc(Br)c1)Nc1c(Nc2cccnc2)c(=O)c1=O (stereo not drawn) [Example 66]	74

Please turn your attention to the following entry.
Reported Emax for Landrace pig bladder strips, given CC(C)(C)C(NC(=O)c1cccc(Br)c1)Nc1c(Nc2cccnc2Cl)c(=O)c1=O (stereo not drawn) [Example 67] ?
72
